Task for the reader: assign each of the following compounds its reported z-score.
Experiment: MM1S cell viability effects, profiling panel, calcein-AM fluorescence, 48 h, basal (AID 1165);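 further: viability of MM1S multiple myeloma cells under basal unstimulated conditions; test concentration not given here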
Conditions: higher = more signal
One number for each entry.

See these solved cases before continuing.
Cc1ccc(S[C@]2(C(=O)NCC(F)(F)F)CC(=O)N(C3CCCCC3)[C@@H]2c2ccc(CO)cc2)cc1 :: -1.03
CCCCC=C[C@@H](NC(=O)c1ccc(C(F)(F)F)cc1)c1ccccc1 :: -0.978
CCOC(=O)C[C@H]1[C@H](OC(=O)c2cc3ccccc3oc2=O)[C@@H](NC(=O)C2CCCCC2)c2cc(OCCCO)ccc2N1C(=O)Cc1ccc(OC)cc1 :: 0.254
COc1ccc([Si](C)(C)[C@H]2[C@H](CCn3cc([C@H](O)c4ccccc4)nn3)O[C@@]3(C(=O)N(C)c4c(Br)cc(C)cc43)[C@@H]2C)cc1 :: -2.48
C=C(CC1([C@@H](NP(=O)(c2ccccc2)c2ccccc2)[C@H]2C[C@@H]2CCN(C(=O)OCC)S(=O)(=O)c2ccc(C)cc2)CC1)c1ccccc1 :: -0.798

For each of the compounds below, state z-score.
1. COc1ccc([Si](C)(C)[C@H]2[C@H](CCn3cc([C@H](O)c4ccccc4)nn3)O[C@@]3(C(=O)N(c4ccccc4)c4ccccc43)[C@@H]2C)cc1
2. CCOC(=O)C1=CC[C@@H](c2ccccc2)N(S(=O)(=O)C[Si](C)(C)C)[C@H]1c1ccccc1
3. COC(=O)[C@@H]1N=C(c2ccc(OCCCO)cc2)O[C@@H]1c1ccccc1CN=[N+]=[N-]
4. CCCCC(=C=CC[C@H](O)c1ccc(OCCO)cc1)C[C@H](O)c1ccccn1
5. C=C(CCCC)C(=O)CC[C@H](OC(=O)c1cccnc1)c1ccc(CO)o1
6. O=C1OCCC=C[C@H]2OC34C=CCN(CCN5CCOCC5)C(=O)[C@H]3N(CCCO)C(=O)[C@@H]4C12 (stereo partly specified)
7. C=CC(CO)NC(=O)OCC1c2ccccc2-c2ccccc21 (stereo unspecified)

Result:
1: -0.54; 2: 0.0106; 3: -0.329; 4: -0.556; 5: 0.187; 6: -0.0305; 7: -1.07

====

Task for the reader: assign each of the following compounds its reported composite z-score.
Test system: Inhibin beta A chain (activin A)
Assay: INHBA (activin A) binders on microarrays, primary screen, biochemical, small-molecule microarray, 635 nm fluorescence scan (AID 1107);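 further: mouse activin A protein probed at 4.33 µg/mL on printed slides; score merges bound-protein fluorescence near 667 nm with spot signal-to-noise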
Details: small-molecule microarray binding, higher = more signal

See these solved cases before continuing.
COC(=O)c1ccc([C@H](NC(=O)c2ccccc2)[C@]2(C)C[C@H]2C2CCCCC2)cc1 :: 0.795
CC(C)[C@@H](C(=O)O)n1cc(-c2ccccc2)nn1 :: 0.48
CC(C)[Si](C#CCCCC#N)(O[C@H](c1ccccc1)c1cn([C@H](C)c2ccccc2)nn1)C(C)C :: -0.301
CCC(CC)C(O)C1C=CC2C(=O)N(C)C(=O)C2N1N1CCCCC1 (stereo not given) :: 0.539
O=C1N(CCS(=O)(=O)c2ccccc2)c2ccccc2[C@@H]2OC(c3ccc(OCCCO)cc3)=N[C@]12CCS(=O)(=O)c1ccccc1 :: 0.878
C=CC[C@]1(C(=O)NCc2ccccc2)COC(c2ccc(OCCCO)cc2)=N1 :: 0.792
[N-]=[N+]=NCc1ccccc1[C@H]1OC(c2ccc(OCCCO)cc2)=N[C@@]1(Cc1ccccc1)C(=O)N1CCOCC1 :: -0.303
COc1ccc([Si](C)(C)[C@H]2[C@H](CCn3cc([C@H](O)c4ccccc4)nn3)O[C@@]3(C(=O)N(C)c4c(Br)cc(C)cc43)[C@@H]2C)cc1 :: 0.227

For each of the compounds below, state composite z-score.
1. COCCOC(=O)N1C(=O)[C@@]2(c3cc(C#CCC(C(=O)OC)C(=O)OC)ccc31)[C@H](C(=O)N1CCCCCCC1)[C@H]1C(=O)O[C@H](c3ccccc3)[C@H](c3ccccc3)N1[C@@H]2c1ccccc1OCCO
2. C=CC[C@]1(C(=O)NCCCOC)N=C(c2ccc(OCCCO)cc2)O[C@H]1c1ccccc1
3. CC#CCO[Si](C#CCCCCCC)(C(C)C)C(C)C
4. COC(=O)[C@@]1(Cc2ccc(F)cc2)[C@H]2c3cc(C(=O)N(C)C)n(CCn4cc([N+](=O)[O-])nc4C)c3C[C@H]2CN1C(=O)c1ccccc1
5. C=CCC(OC(C)=O)[C@@H]1[C@@H](N(Cc2cc3ccccc3o2)C(=O)c2ccc(-c3ccccc3)cc2)c2cc(OCCCO)ccc2N1C(=O)c1ccc2ccccc2n1 (stereo not given in full)
6. NC(=O)NCC#Cc1ccc2c(c1)[C@]1(C(=O)N2)[C@H](C(=O)N2CCCCCCC2)[C@H]2C(=O)O[C@H](c3ccccc3)[C@H](c3ccccc3)N2[C@@H]1c1ccc(O)cc1
7. C#CCN([C@H](/C=C/C1CC1)[C@@H](O)Cc1ccccc1)[C@@H](Cc1ccccc1)C(=O)OC

Result:
1. 1.96
2. -0.112
3. -2.74
4. 0.894
5. 1.33
6. 1.49
7. 0.858
